target: GGTase (Homo sapiens, UniProt P49354+P53609); assay: GGTase prenylation assay (partially purified GGTase, recombinant H-ras 61 L CAIL, [3H] geranylgeranyl diphosphate); settings: 5 μM recombinant H-ras (61 L, CAIL), 1 μM [3H] geranylgeranyl diphosphate
pIC50: −log10 of the molar value.
Quantity Measured: pIC50

The cases that follow already have their pIC50 on record.
>>> df
                                   compound  quantity_measured  measured
0  CCc1ccc(CC=CC(N)CS)cc1C(=O)NC(CCSC)C(=O)O (stereo not drawn)              pIC50      6.38
1  CSCCC(NC(=O)c1cc(CCCC(N)CS)ccc1C(C)C)C(=O)O (stereo not drawn)              pIC50      6.17
2  COC(=O)C(CCSC)NC(=O)c1cc(CCCC(N)CS)ccc1C(C)C (stereo not drawn)              pIC50      5.35

[I] COC(=O)C(CCSC)NC(=O)c1cc(CC=CC(N)CS)ccc1C (stereo not drawn)
[II] CSCCC(NC(=O)c1cc(CCCC(N)CS)ccc1C(C)C)C(=O)NCc1ccco1 (stereo not drawn)
Ask | Hi team, can someone confirm which has the larger pIC50: I or II ? Thanks. Return value: the label identifying the chosen record.
Reply | I

[I] CSCCC(NC(=O)c1cc(CC=CC(N)CS)ccc1C)C(=O)O (stereo not drawn)
[II] CSCCC(NC(=O)c1cc(CC=CC(N)CS)ccc1C(C)C)C(=O)O (stereo not drawn)
Ask | Hi team, can someone confirm which has the larger pIC50: I or II ? Thanks. Return value: the label identifying the chosen record.
Reply | II

[P] CCc1ccc(CC=CC(N)CS)cc1C(=O)NC(CCSC)C(=O)OC (stereo not drawn)
[Q] COC(=O)C(CCSC)NC(=O)c1cc(CC=CC(N)CS)ccc1C(C)C (stereo not drawn)
Ask | Decide: P or Q , by lowest recorded pIC50. Return value: the label identifying the chosen record.
Reply | Q

---

biological target: FTase (Homo sapiens, UniProt P49354+P49356); test: FTase prenylation assay (partially purified FTase, recombinant H-ras, [3H] farnesyl pyrophosphate); format: biochemical; conditions: 3 μM recombinant H-ras, 440 nM [3H] FPP, 15 minutes at 37° C.
Quantity Measured: IC50 (nM)

The cases that follow already have their IC50 on record.
                                   compound                               measured_on  measured
0  CCc1ccc(CC=CC(N)CS)cc1C(=O)NC(CCSC)C(=O)OC (stereo not drawn)  FTase (Homo sapiens, UniProt P49354+P49356)       560
1  CSCCC(NC(=O)c1cc(CC=CC(N)CS)ccc1C)C(=O)O (stereo not drawn)  FTase (Homo sapiens, UniProt P49354+P49356)         1
2  CCc1ccc(CC=CC(N)CS)cc1C(=O)NC(CCSC)C(=O)O (stereo not drawn)  FTase (Homo sapiens, UniProt P49354+P49356)         9
3  CSCCC(NC(=O)c1cc(CCCC(N)CS)ccc1C(C)C)C(=O)NCc1ccco1 (stereo not drawn)  FTase (Homo sapiens, UniProt P49354+P49356)        67
4  COC(=O)C(CCSC)NC(=O)c1cc(CC=CC(N)CS)ccc1C(C)C (stereo not drawn)  FTase (Homo sapiens, UniProt P49354+P49356)        80

[1] COC(=O)C(CCSC)NC(=O)c1cc(CC=CC(N)CS)ccc1C (stereo not drawn)
[2] COC(=O)C(CCSC)NC(=O)c1cc(CCCC(N)CS)ccc1C(C)C (stereo not drawn)
[3] CSCCC(NC(=O)c1cc(CCCC(N)CS)ccc1C(C)C)C(=O)O (stereo not drawn)
Ask | # sort list by recorded IC50, greatest to least List the labels according to the requested ordering.
Reply | 1, 2, 3
(1: 300 nM, 2: 73 nM, 3: 8 nM)
